# experimentSummary: in vitro
# experimentalSetup: mouse, plasma
measuredQuantity: half-life at 60 µM

Which measured half-life at 60 µM value corresponds to CN=C(N)NCCC[C@H](NC(=O)[C@H](Cc1ccccc1)NC(=O)[C@@H](Cc1ccccc1)NC(=O)[C@H](CO)NC(=O)[C@H](Cc1ccccc1)NC(=O)CNC(=O)[C@@H]1C[C@@H](O)CN1C(=O)[C@@H]1CCCN1C(=O)[C@H](CCCNC(=N)N)NC(=O)[C@H](N)CCCCNC(=NCC(F)(F)F)NCC(F)(F)F)C(=O)O [Compound 1] ?
> 2 h

----------
Below, each entry is listed alongside its reported IC50.
# targetEntity: Bradykinin Receptor (Cavia porcellus)
# Sequence (O70526 1-372): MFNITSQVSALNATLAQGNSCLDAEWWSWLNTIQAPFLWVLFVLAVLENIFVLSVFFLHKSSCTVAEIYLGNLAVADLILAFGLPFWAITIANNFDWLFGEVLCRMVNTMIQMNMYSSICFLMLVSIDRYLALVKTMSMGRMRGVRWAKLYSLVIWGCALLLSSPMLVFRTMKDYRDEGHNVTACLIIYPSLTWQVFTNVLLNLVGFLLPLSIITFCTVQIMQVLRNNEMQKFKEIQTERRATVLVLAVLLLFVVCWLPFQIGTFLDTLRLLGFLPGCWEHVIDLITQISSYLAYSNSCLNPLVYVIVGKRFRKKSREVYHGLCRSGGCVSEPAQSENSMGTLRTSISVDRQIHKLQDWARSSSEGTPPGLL
Numbers only here, please. The scale is nM.

molecularString | unitSpec | observed
CN=C(N)NCCC[C@H](NC(=O)[C@@H]1C[C@@H]2CCCC[C@@H]2N1C(=O)[C@H]1Cc2ccccc2CN1C(=O)[C@H](CO)NC(=O)[C@H](Cc1cccs1)NC(=O)CNC(=O)[C@@H]1C[C@@H](O)CN1C(=O)[C@@H]1CCCN1C(=O)[C@H](CCCNC(N)=NC)NC(=O)[C@H](N)CCCCNC(=NCC(F)(F)F)NCC(F)(F)F)C(=O)O | nM | 0.05

Please tell me: IC50 of CN=C(NC)NCCC[C@H](NC(=O)[C@@H]1C[C@@H]2CCCC[C@@H]2N1C(=O)[C@H]1Cc2ccccc2CN1C(=O)[C@H](CO)NC(=O)[C@H](Cc1cccs1)NC(=O)CNC(=O)[C@@H]1C[C@@H](O)CN1C(=O)[C@@H]1CCCN1C(=O)[C@H](CCCNC(=NC)NC)NC(=O)[C@H](N)CCCCNC(=NCC(F)(F)F)NCC(F)(F)F)C(=O)O , system Bradykinin Receptor (Cavia porcellus)?
0.15

----------
# experimentSummary: in vitro
# experimentalSetup: mouse, plasma
# Procedure: The ability of bradykinin antagonists to resist proteolysis was determined by measuring the half-life of the analogs in plasma using HPLC. Rat blood was collected into heparin-containing tubes and centrifuged at 2000 X g for 10 minutes at 4°C to separate the plasma. […] The analog was monitored by uv absorption at 210 nm and the results analyzed with a Hewlett-Packard integrator. Peak height was used to quantitate the amount of analog present in the sample. […]
Where a SMILES comes first, the peptide text is derived from it. [ ]: non-standard residue; d: D form. d(hArg)(Nω,Nω'-(CH2CF3)2) = N[C@H](CCCCNC(=NCC(F)(F)F)NCC(F)(F)F)C(=O)O; Oic = O=C(O)[C@@H]1C[C@@H]2CCCC[C@@H]2N1; Arg(Me) = CNC(=N)NCCC[C@H](N)C(=O)O; Hyp = O=C(O)[C@@H]1C[C@@H](O)CN1; dTic = O=C(O)[C@H]1Cc2ccccc2CN1
measuredQuantity: half-life at 60 µM

molecule | half-life at 60 µM
CN=C(N)NCCC[C@H](NC(=O)[C@@H]1C[C@@H]2CCCC[C@@H]2N1C(=O)[C@H]1Cc2ccccc2CN1C(=O)[C@H](CO)NC(=O)[C@H](Cc1ccccc1)NC(=O)CNC(=O)[C@@H]1C[C@@H](O)CN1C(=O)[C@@H]1CCCN1C(=O)[C@H](CCCNC(N)=NC)NC(=O)[C@H](N)CCCCNC(=NCC(F)(F)F)NCC(F)(F)F)C(=O)O [Compound 91] (H-[d(hArg)(Nω,Nω'-(CH2CF3)2)][Arg(Me)]P[Hyp]GFS[dTic][Oic][Arg(Me)]-OH) | > 2 h
CN=C(N)NCCC[C@H](NC(=O)[C@H](Cc1ccc(OC)cc1)NC(=O)[C@@H](Cc1ccccc1)NC(=O)[C@H](CO)NC(=O)[C@H](Cc1ccccc1)NC(=O)CNC(=O)[C@@H]1C[C@@H](O)CN1C(=O)[C@@H]1CCCN1C(=O)[C@H](CCCNC(=N)N)NC(=O)[C@H](N)CCCNC(=N)N)C(=O)O [Compound 74] (H-[dR]RP[Hyp]GFS[dF]Y(Me)[Arg(Me)]-OH) | > 2 h

Now examine the next entry.
Which measured half-life at 60 µM value corresponds to CN=C(N)NCCC[C@H](NC(=O)[C@@H]1C[C@@H]2CCCC[C@@H]2N1C(=O)[C@H]1Cc2ccccc2CN1C(=O)[C@H](CO)NC(=O)[C@H](Cc1cccs1)NC(=O)CNC(=O)[C@@H]1C[C@@H](O)CN1C(=O)[C@@H]1CCCN1C(=O)[C@H](CCCNC(N)=NC)NC(=O)[C@H](N)CCCCNC(=NCC(F)(F)F)NCC(F)(F)F)C(=O)O ?
> 2 h
